Experiment: Binding of pyridinium cations to sepharose-immobilized heparin (spectrophotometric)
Details: immobilized heparin 25 mg/mL, tested compounds 20÷100 μM in water, 5 minutes, room temperature
experimental-readout: Degree of binding

# example entries with known answers
Lab note: Cc1cccc[n+]1C [12-DMP^+, 1,2-dimethylpyridine] gave Degree of binding of >15%

Lab note: C[n+]1cccc(C(N)=O)c1 [MNA^+, 1-methyl-nicotinamide] gave Degree of binding of >45%

Lab note: O=C(O)c1cccnc1 [NC, nicotinic acid] gave Degree of binding of >40%

Lab note: C[n+]1cccc(C(=O)NCO)c1 [MNAF^+] gave Degree of binding of >35%

Next:
Lab note: Cc1cc[n+](C)cc1 [14-DMP^+, 1,4-dimethylpyridine] gave Degree of binding of >20%

Lab note: C[n+]1ccccc1 [MP^+, 1-methylpyridine] gave Degree of binding of >25%

Lab note: Cc1cc[n+](C)cc1C(=O)[O-] [4MeTryg, 4-methyltrigonelline] gave Degree of binding of >5%

Lab note: NC(=O)c1ccc[n+]([O-])c1 [N—OX, nicotinamide N-oxide] gave Degree of binding of >10%

Lab note: NC(=O)c1cccnc1 [NA, nicotinamide] gave Degree of binding of ≈0%

Lab note: C[n+]1cccc(C(=O)[O-])c1 [Tryg, trigonelline] gave Degree of binding of ≈0%

Lab note: Cn1cc(C(N)=O)ccc1=O [2-PYR, 1-methyl-2-pyridone-5-carboxamide] gave Degree of binding of >5%

Lab note: CC(=O)c1ccc[n+](C)c1 [MAP^+, 1-methyl-3-acetyl-pyridine] gave Degree of binding of >25%
